Value source: patent US7803801B2

The entries below come with measured IC50 values attached.
# targetEntity: GST-Syk Full Protein (human) (Homo sapiens, UniProt P43405)
# runDescription: Syk kinase inhibition test (HTRF method)
# Assay type: biochemical
# setupConditions: Tables 2-x, thiophene compounds B; read-out: sykHTRK ave IC50
# Experimental: Syk Kinase Inhibition Test (HTRF Method) After the compounds were serially diluted with dimethylsulfoxide (DMSO), 10 μL of those 10-fold diluted with kinase buffer (20 mM HEPES pH 7.0, 10 mM MgCl2, 50 mM NaCl, 1 mM 2-ME, 0.05% BSA) was added to opti-plate HTRF-96 (Packard) (final DMSO concentration: 2%). […]

>>> experimentalvalue("CC(=O)c1ccc(-c2cccc(Nc3cc(CO)ccn3)n2)s1")
"100 to 1000 nM"
>>> experimentalvalue("CC(=O)c1ccc(-c2cccc(Nc3cc(C)ccn3)n2)s1")
"< 100 nM"

Entry CC(O)c1ccc(-c2cccc(Nc3cc(CCO)ccn3)n2)s1 (stereo not shown) , tested on GST-Syk Full Protein (human) (Homo sapiens, UniProt P43405), has a reported IC50 of < 100 nM

So the reported IC50 for CC(=O)N(Cc1ccc(-c2cccc(Nc3cc(C)ccn3)n2)s1)C[C@H]1CC[C@H](C(=O)O)CC1 , on GST-Syk Full Protein (human) (Homo sapiens, UniProt P43405), turned out to be < 100 nM

Response field IC50 (GST-Syk Full Protein (human) (Homo sapiens, UniProt P43405)) for item Cc1ccnc(Nc2cccc(-c3ccc(C(=O)NCCN)s3)n2)c1 : < 100 nM

Reading of IC50 for Cc1ccnc(Nc2cccc(-c3ccc(CC(C)O)s3)n2)c1 (stereo not shown) with GST-Syk Full Protein (human) (Homo sapiens, UniProt P43405): 100 to 1000 nM

Case Cc1ccnc(Nc2cccc(-c3ccc(C(=O)N4CCC(C(=O)O)CC4)s3)n2)c1 , GST-Syk Full Protein (human) (Homo sapiens, UniProt P43405), IC50 recorded as 100 to 1000 nM
